- System: Vero cell culture
measurement_label: CC50

>>> print(df.to_string())
                                smiles_code  observed_measurement
0  O=C(NNC(=O)C12CC3CC(CC(C3)C1)C2)c1ccc(C(F)(F)F)cc1              > 273 µM

* * *

- System: Vaccinia virus (strain Copenhagen)
measurement_label: SI (CC50/IC50) Vaccinia

>>> df
                                   compound        measurement_label  observed_measurement
0  CC12CC3CC(C1)CC(NC(=O)c1ccc(C(F)(F)F)cc1)(C3)C2  SI (CC50/IC50) Vaccinia              8.98/>33
1  O=C(NC1C2CC3CC(C2)CC1C3)c1ccc(Br)cc1 (centres unmarked) [Compound 11, N-(Adamantan-2-yl)-4-bromobenzamide]  SI (CC50/IC50) Vaccinia              3.06/>98
2  O=C(NNC(=O)C12CC3CC(CC(C3)C1)C2)c1ccc(C(F)(F)F)cc1  SI (CC50/IC50) Vaccinia             1.07/>255
3  C/C(=N\NC(=O)c1ccc(C(F)(F)F)cc1)C12CC3CC(CC(C3)C1)C2  SI (CC50/IC50) Vaccinia             10.55/>26
4   O=C(NCC12CC3CC(CC(C3)C1)C2)c1ccc(Br)cc1  SI (CC50/IC50) Vaccinia                8.3/28

* * *

- System: Vaccinia virus (strain Copenhagen)
measurement_label: SI (CC50/IC50) Vaccinia

                                smiles_code  observed_measurement
0  CN(C(=O)c1ccc(C(F)(F)F)cc1)C12CC3CC(CC(C3)C1)C2              4.85/>61
1  CCC12CC3CC(C1)CC(NC(=O)c1ccc(C(F)(F)F)cc1)(C3)C2               4.1/>68
2  O=C(NNC(=O)c1ccc(C(F)(F)F)cc1)NC12CC3CC(CC(C3)C1)C2             36.26/2.6
